- Tested on: Mes-Sa-B1 cells (Pgp overexpressing)
- ASSAY OVERVIEW: Fluorescence-based cytotoxicity assay, Mes-Sa-B1 mOr
- CONDITION DETAILS: read-out: IC50 Mes-Sa-B1, monoculture; fluorescent protein based assay, monoculture
pIC50: −log10 of the molar value.

{"columns": ["MOL", "MEASUREMENT TARGET", "pIC50"],
 "data": [
  ["Oc1c(CN2CCCCC2)ccc2cccnc12", "Mes-Sa-B1 cells (Pgp overexpressing)", 5.55]
]}

----------
- Test system: ABCB1 (P-glycoprotein)
- ASSAY OVERVIEW: Fluorescence-based cytotoxicity assay, ABCB1-expressing A431-B1 mCh
- CONDITION DETAILS: human

{"columns": ["COMPOUND", "IC50 at […], µM"],
 "data": [
  ["COc1cc([C@@H]2c3cc4c(cc3[C@@H](O[C@@H]3O[C@@H]5CO[C@@H](C)O[C@H]5[C@H](O)[C@H]3O)[C@H]3COC(=O)[C@H]23)OCO4)cc(OC)c1O [NSC-141540, Etoposide]", 13.8]
]}

----------
- Tested on: ABCB1 (P-glycoprotein)
- ASSAY OVERVIEW: Fluorescence-based cytotoxicity assay, ABCB1-expressing A431-B1 mCh
- CONDITION DETAILS: human, A431-B1 mCherry cells (ABCB1-expressing), monoculture

{"columns": ["COMPOUND", "UNIT STRING", "IC50 at […]"],
 "data": [
  ["COc1cc([C@@H]2c3cc4c(cc3[C@@H](O[C@@H]3O[C@@H]5CO[C@@H](C)O[C@H]5[C@H](O)[C@H]3O)[C@H]3COC(=O)[C@H]23)OCO4)cc(OC)c1O [NSC-141540, Etoposide]", "µM", 46.3]
]}
